These measurements were taken from paper PMC7305236.

SYSTEM NAME: XCR1 (Homo sapiens, UniProt P46094)
Construct: expressed in transfected cells
Sequence (P46094 whole entry): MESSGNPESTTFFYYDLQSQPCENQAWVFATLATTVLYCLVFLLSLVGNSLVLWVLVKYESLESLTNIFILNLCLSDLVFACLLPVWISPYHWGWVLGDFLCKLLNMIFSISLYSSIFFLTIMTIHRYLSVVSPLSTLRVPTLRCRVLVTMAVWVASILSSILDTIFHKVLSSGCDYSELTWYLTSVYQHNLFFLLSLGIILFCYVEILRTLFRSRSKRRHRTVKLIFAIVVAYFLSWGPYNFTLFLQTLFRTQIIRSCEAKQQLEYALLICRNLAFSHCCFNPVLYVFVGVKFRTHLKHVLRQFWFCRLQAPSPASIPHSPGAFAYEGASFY
PROTOCOL DESCRIPTION: Figure S2a opioid peptide screen on chemokine receptors
Assay type: cell-based
Set-up: dose or concentration left out as unconfirmed
RECORDED CONDITIONS: replicate 3, read-out: XCR1 activity, ctrl+ = 100
REPORTED METRIC: activation (%)
All answers are understood in %, so give the number only.

Short answer for CSCC[C@H](NC(=O)[C@H](Cc1ccccc1)NC(=O)CNC(=O)CNC(=O)[C@@H](N)Cc1ccc(O)cc1)C(=O)N[C@@H](CCCNC(=N)N)C(=O)N[C@@H](CCCNC(=N)N)C(=O)N[C@H](C(N)=O)C(C)C : activation was 12.1

====

SYSTEM NAME: CXCR3B (Homo sapiens, UniProt P49682)
Construct: expressed in transfected cells; host or cells: U87 cells
Sequence (P49682 1-415 isoform P49682-2): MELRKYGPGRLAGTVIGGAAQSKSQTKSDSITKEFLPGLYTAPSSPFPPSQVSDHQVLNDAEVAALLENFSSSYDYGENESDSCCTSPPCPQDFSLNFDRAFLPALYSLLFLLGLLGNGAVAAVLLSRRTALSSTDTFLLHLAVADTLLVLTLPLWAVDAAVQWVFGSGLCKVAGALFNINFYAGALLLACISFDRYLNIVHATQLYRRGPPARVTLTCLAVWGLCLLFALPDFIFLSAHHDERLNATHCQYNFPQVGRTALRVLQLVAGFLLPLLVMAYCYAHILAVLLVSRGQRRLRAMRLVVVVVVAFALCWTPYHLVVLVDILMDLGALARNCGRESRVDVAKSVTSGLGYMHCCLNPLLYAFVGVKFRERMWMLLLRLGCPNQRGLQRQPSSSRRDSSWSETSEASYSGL
PROTOCOL DESCRIPTION: Figure S2a opioid peptide screen on chemokine receptors
Type: cell-based
Parameters: dose or concentration left out as unconfirmed
RECORDED CONDITIONS: replicate 2, read-out: CXCR3B activity, ctrl+ = 100
This section presents compounds with their documented activation values.
Please format your answer as a value with the unit trailing.

QUERY SMILES	activation
C[C@H](NC(=O)CNC(=O)[C@@H](NC(=O)[C@H](Cc1ccccc1)NC(=O)CNC(=O)CNC(=O)[C@@H](N)Cc1ccccc1)[C@@H](C)O)C(=O)N[C@@H](CCCNC(=N)N)C(=O)N[C@@H](CCCCN)C(=O)N[C@@H](CO)C(=O)N[C@@H](C)C(=O)N[C@@H](CCCNC(=N)N)C(=O)N[C@@H](CCCCN)C(N)=O	1.14%
CC(C)C[C@H](NC(=O)[C@H](CCCCN)NC(=O)[C@H](CCCN=C(N)N)NC(=O)[C@H](C)NC(=O)[C@H](CO)NC(=O)[C@H](CCCCN)NC(=O)[C@H](CCCN=C(N)N)NC(=O)[C@H](C)NC(=O)CNC(=O)[C@@H](NC(=O)[C@H](Cc1ccccc1)NC(=O)CNC(=O)CNC(=O)[C@@H](N)Cc1ccccc1)[C@@H](C)O)C(=O)N[C@@H](C)C(=O)N[C@@H](CC(N)=O)C(=O)N[C@@H](CCC(N)=O)C(=O)O	-6.64%

Query compound follows.
Recorded activation (compound CC[C@H](C)[C@H](NC(=O)[C@H](CCCNC(=N)N)NC(=O)[C@H](CCCNC(=N)N)NC(=O)[C@H](CC(C)C)NC(=O)[C@H](Cc1ccccc1)NC(=O)CNC(=O)CNC(=O)[C@@H](N)Cc1ccc(O)cc1)C(=O)N[C@@H](CCCNC(=N)N)C(=O)N1CCC[C@H]1C(=O)N[C@@H](CCCCN)C(=O)N[C@@H](CC(C)C)C(=O)N[C@@H](CCCCN)C(=O)N[C@@H](Cc1c[nH]c2ccccc12)C(=O)N[C@@H](CC(=O)O)C(=O)N[C@@H](CC(N)=O)C(=O)N[C@@H](CCC(N)=O)C(=O)O ): 1.06%

====

SYSTEM NAME: CXCR5 (Homo sapiens)
Construct: expressed in transfected cells
Sequence (P32302 whole entry): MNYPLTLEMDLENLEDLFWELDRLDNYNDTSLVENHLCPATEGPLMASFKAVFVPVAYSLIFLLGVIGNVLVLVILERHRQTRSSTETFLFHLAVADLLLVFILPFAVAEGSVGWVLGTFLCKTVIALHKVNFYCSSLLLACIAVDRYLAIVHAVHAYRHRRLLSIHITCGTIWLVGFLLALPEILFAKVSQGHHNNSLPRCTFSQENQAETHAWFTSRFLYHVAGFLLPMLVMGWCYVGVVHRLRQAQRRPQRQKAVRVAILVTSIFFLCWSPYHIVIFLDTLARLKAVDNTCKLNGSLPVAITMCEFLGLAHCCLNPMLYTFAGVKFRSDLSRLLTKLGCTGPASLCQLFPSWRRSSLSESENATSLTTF
PROTOCOL DESCRIPTION: Figure S2a opioid peptide screen on chemokine receptors
Type: cell-based
Set-up: dose or concentration left out as unconfirmed
RECORDED CONDITIONS: replicate 2, read-out: CXCR5 activity, ctrl+ = 100
Starred links: 1 amine or outer side, 2 acyl side, 3 side chain; linkers in the order of their positions; H or OH if unused. Non-standard residues stand in square brackets, D forms with d. Residues, ends and D or L forms follow the SMILES beside them. X1 = N[C@@H](Cc1ccccc1)CN(CC(=O)[*:2])[*:1]
In this section we review reported activation values for a set of compounds.
Mention the unit after the number when you answer.

Example results:
COMPOUND	activation
CC(C)C[C@H](NC(=O)[C@H](CCCCN)NC(=O)[C@H](CCCN=C(N)N)NC(=O)[C@H](C)NC(=O)[C@H](CO)NC(=O)[C@H](CCCCN)NC(=O)[C@H](CCCN=C(N)N)NC(=O)[C@H](C)NC(=O)CNC(=O)[C@@H](NC(=O)[C@H](Cc1ccccc1)NC(=O)CNC(=O)CNC(=O)[C@@H](N)Cc1ccccc1)[C@@H](C)O)C(=O)N[C@@H](C)C(=O)N[C@@H](CC(N)=O)C(=O)N[C@@H](CCC(N)=O)C(=O)O	-7.28%
C[C@H](NC(=O)CNC(=O)[C@@H](NC(=O)[C@H](Cc1ccccc1)NC(=O)CNC(=O)CNC(=O)[C@@H](N)Cc1ccccc1)[C@@H](C)O)C(=O)N[C@@H](CCCNC(=N)N)C(=O)N[C@@H](CCCCN)C(=O)N[C@@H](CO)C(=O)N[C@@H](C)C(=O)N[C@@H](CCCNC(=N)N)C(=O)N[C@@H](CCCCN)C(N)=O	-2.66%
NC(=O)[C@H](Cc1ccccc1)NC(=O)[C@H](Cc1c[nH]c2ccccc12)NC(=O)[C@@H]1CCCN1C(=O)[C@@H](N)Cc1ccc(O)cc1 [Endomorphin-1]	-1.48%
CC(C)C[C@H](NC(=O)[C@H](Cc1ccccc1)NC(=O)CNC(=O)CNC(=O)[C@@H](N)Cc1ccc(O)cc1)C(=O)N[C@@H](CCCN=C(N)N)C(=O)N[C@@H](CCCN=C(N)N)C(=O)N[C@@H](CCC(N)=O)C(=O)N[C@@H](Cc1ccccc1)C(=O)N[C@@H](CCCCN)C(=O)N[C@H](C(=O)N[C@H](C(=O)N[C@H](C(=O)O)[C@@H](C)O)C(C)C)C(C)C	-6.11%
C[C@H](NC(=O)CNC(=O)[C@@H](NC(=O)[C@H](Cc1ccccc1)NC(=O)CNC(=O)CNC[C@@H](N)Cc1ccccc1)[C@@H](C)O)C(=O)N[C@@H](CCCNC(=N)N)C(=O)N[C@@H](CCCCN)C(=O)N[C@@H](CO)C(=O)N[C@@H](C)C(=O)N[C@@H](CCCNC(=N)N)C(=O)N[C@@H](CCCCN)C(N)=O [FG Nociceptin 1-13] (H-[X1]GFTGARKSARK-NH2)	-2.11%

Short answer for CC[C@H](C)[C@H](NC(=O)[C@H](CCCNC(=N)N)NC(=O)[C@H](CCCNC(=N)N)NC(=O)[C@H](CC(C)C)NC(=O)[C@H](Cc1ccccc1)NC(=O)CNC(=O)CNC(=O)[C@@H](N)Cc1ccc(O)cc1)C(=O)N[C@@H](CCCNC(=N)N)C(=O)N1CCC[C@H]1C(=O)N[C@@H](CCCCN)C(=O)N[C@@H](CC(C)C)C(=O)N[C@@H](CCCCN)C(=O)O : activation was -5.55%

====

Listing of recorded activation by entry.
SYSTEM NAME: CXCR3B (Homo sapiens, UniProt P49682)
Construct: expressed in transfected cells; host or cells: U87 cells
PROTOCOL DESCRIPTION: Figure S2a opioid peptide screen on chemokine receptors
Type: cell-based
Set-up: dose or concentration left out as unconfirmed
RECORDED CONDITIONS: replicate 1, read-out: CXCR3B activity, ctrl+ = 100
Give the quantity in %, number only.

QUERY SMILES	activation (%)
CC(C)C[C@H](NC(=O)[C@H](Cc1ccccc1)NC(=O)CNC(=O)CNC(=O)[C@@H](N)Cc1ccc(O)cc1)C(=O)N[C@@H](CCCN=C(N)N)C(=O)N[C@@H](CCCN=C(N)N)C(=O)N[C@@H](CCC(N)=O)C(=O)N[C@@H](Cc1ccccc1)C(=O)N[C@@H](CCCCN)C(=O)N[C@H](C(=O)N[C@H](C(=O)N[C@H](C(=O)O)[C@@H](C)O)C(C)C)C(C)C	-3.84

# context switch: different compound, same activation
activation reading for CC[C@H](C)[C@H](NC(=O)[C@H](CCCNC(=N)N)NC(=O)[C@H](CCCNC(=N)N)NC(=O)[C@H](CC(C)C)NC(=O)[C@H](Cc1ccccc1)NC(=O)CNC(=O)CNC(=O)[C@@H](N)Cc1ccc(O)cc1)C(=O)N[C@@H](CCCNC(=N)N)C(=O)N1CCC[C@H]1C(=O)N[C@@H](CCCCN)C(=O)N[C@@H](CC(C)C)C(=O)N[C@@H](CCCCN)C(=O)O : 3.92

====

SYSTEM NAME: CXCR3B (Homo sapiens, UniProt P49682)
Construct: expressed in transfected cells; host or cells: U87 cells
PROTOCOL DESCRIPTION: Figure S2a opioid peptide screen on chemokine receptors
Format: cell-based
Design: dose or concentration left out as unconfirmed
RECORDED CONDITIONS: replicate 2, read-out: CXCR3B activity, ctrl+ = 100
Starred links: 1 amine or outer side, 2 acyl side, 3 side chain; linkers in the order of their positions; H or OH if unused. Non-standard residues stand in square brackets, D forms with d. Residues, ends and D or L forms follow the SMILES beside them. X1 = N[C@@H](Cc1ccccc1)CN(CC(=O)[*:2])[*:1]
Consider the following compounds and their measured activation readings.
Write the answer as a number in %, unit excluded.

COMPOUND	READING UNIT	activation
CC(C)C[C@H](NC(=O)[C@H](Cc1ccccc1)NC(=O)CNC(=O)CNC(=O)[C@@H](N)Cc1ccc(O)cc1)C(=O)N[C@@H](CCCN=C(N)N)C(=O)N[C@@H](CCCN=C(N)N)C(=O)N[C@@H](CCC(N)=O)C(=O)N[C@@H](Cc1ccccc1)C(=O)N[C@@H](CCCCN)C(=O)N[C@H](C(=O)N[C@H](C(=O)N[C@H](C(=O)O)[C@@H](C)O)C(C)C)C(C)C	%	-0.0101
CC[C@H](C)[C@H](NC(=O)[C@H](CCCNC(=N)N)NC(=O)[C@H](CCCNC(=N)N)NC(=O)[C@H](CC(C)C)NC(=O)[C@H](Cc1ccccc1)NC(=O)CNC(=O)CN)C(=O)N[C@@H](CCCNC(=N)N)C(=O)N1CCC[C@H]1C(=O)N[C@@H](CCCCN)C(=O)N[C@@H](CC(C)C)C(=O)N[C@@H](CCCCN)C(=O)N[C@@H](Cc1c[nH]c2ccccc12)C(=O)N[C@@H](CC(=O)O)C(=O)N[C@@H](CC(N)=O)C(=O)N[C@@H](CCC(N)=O)C(=O)O	%	-3.44

We next turn to a different compound, shown below.
The compound listed as C[C@H](NC(=O)CNC(=O)[C@@H](NC(=O)[C@H](Cc1ccccc1)NC(=O)CNC(=O)CNC[C@@H](N)Cc1ccccc1)[C@@H](C)O)C(=O)N[C@@H](CCCNC(=N)N)C(=O)N[C@@H](CCCCN)C(=O)N[C@@H](CO)C(=O)N[C@@H](C)C(=O)N[C@@H](CCCNC(=N)N)C(=O)N[C@@H](CCCCN)C(N)=O [FG Nociceptin 1-13] (H-[X1]GFTGARKSARK-NH2) shows activation equal to 1.26
